Ref: ChEMBL document CHEMBL1157197

Molecular target: Pyruvate kinase (Leishmania mexicana)
Sequence (whole entry): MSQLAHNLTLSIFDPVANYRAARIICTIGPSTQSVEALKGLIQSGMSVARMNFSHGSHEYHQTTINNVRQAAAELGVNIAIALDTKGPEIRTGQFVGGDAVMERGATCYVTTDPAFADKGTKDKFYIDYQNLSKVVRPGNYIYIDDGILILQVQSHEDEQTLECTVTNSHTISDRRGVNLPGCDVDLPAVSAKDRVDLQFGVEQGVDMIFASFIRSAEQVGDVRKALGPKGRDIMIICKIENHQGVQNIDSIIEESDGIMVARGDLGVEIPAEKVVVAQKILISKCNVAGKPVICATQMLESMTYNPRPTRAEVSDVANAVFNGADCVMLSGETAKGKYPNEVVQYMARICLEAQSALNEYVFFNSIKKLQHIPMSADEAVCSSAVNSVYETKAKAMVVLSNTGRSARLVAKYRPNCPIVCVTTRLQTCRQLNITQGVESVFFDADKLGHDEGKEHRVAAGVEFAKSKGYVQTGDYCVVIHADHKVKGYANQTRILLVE
Assay: Inhibition of Leishmania mexicana pyruvate kinase assessed as enzyme residual activity at 5 mM
Field 'label' (enum: 1 / 0). Set to 1 when Activity is strictly under 60%; else 0.

Compound: OC[C@H]1O[C@H](CNC2CCCc3ccccc32)[C@@H](O)[C@@H]1O (stereo not given in full)
Label: 1

Activity under 60%? Item: `C=CCNC(=O)[C@H]1O[C@H](CNC2CCCCCC2)[C@@H](O)[C@@H]1O` 1

Activity under 60%? Item: `O=C(NC1CCCCCC1)[C@H]1O[C@H](CNC2CCCCCC2)[C@@H](O)[C@@H]1O` 1

Activity under 60%? Item: `OC[C@H]1O[C@H](CNC(c2ccccc2)c2ccccc2)[C@@H](O)[C@@H]1O` 0

Activity under 60%? Item: `O=C(Nc1ccccc1)[C@H]1O[C@H](CNC2CCCCCC2)[C@@H](O)[C@@H]1O` 1

Activity under 60%? Item: `OC[C@H]1O[C@H](CNC2CCCCCCC2)[C@@H](O)[C@@H]1O` 1

Activity under 60%? Item: `COc1ccc([C@H](C)NC[C@H]2O[C@H](CO)[C@@H](O)[C@@H]2O)cc1` 1

Activity under 60%? Item: `CC(C)C[C@H](CO)NC[C@H]1O[C@H](CO)[C@@H](O)[C@@H]1O` 0

Activity under 60%? Item: OCCC(NC[C@H]1O[C@H](CO)[C@@H](O)[C@@H]1O)c1ccccc1 (stereo not given in full) 0

Activity under 60%? Item: `CCCCCCNC[C@H]1O[C@H](CO)[C@@H](O)[C@@H]1O` 1
